Overview of reported Selectivity Index (CC50 divided by EC50) across a group of compounds:
system: influenza A (H5N1); experiment: microbe, parasite or virus in culture; assay type: cell-based; conditions: strain A(H5N1), MDCK cells
property: Selectivity Index (CC50 divided by EC50)

compound="NC(=O)c1ncn([C@@H]2O[C@H](CO)[C@@H](O)[C@H]2O)n1 [Ribavirin, ribavirin, reference compound]" property="Selectivity Index (CC50 divided by EC50)" result=>23
compound="O=C(O)c1cn(C2CC2)c2cc(N3CCN(CNc4ccc(S(=O)(=O)Nc5ncccn5)cc4)CC3)c(F)cc2c1=O [CF-SD]" property="Selectivity Index (CC50 divided by EC50)" result=>3
compound="COc1c(N2CCN(CNc3ccc(S(N)(=O)=O)cc3)CC2)c(F)cc2c(=O)c(C(=O)O)cn(C3CC3)c12 [GF-SA]" property="Selectivity Index (CC50 divided by EC50)" result=>3
compound="COc1c(N2CCN(CNc3ccc(S(=O)(=O)Nc4nc(C)cc(C)n4)cc3)CC2)c(F)cc2c(=O)c(C(=O)O)cn(C3CC3)c12 [GF-SDM]" property="Selectivity Index (CC50 divided by EC50)" result=>5
